# Test System: N-formyl peptide receptor 2 (Homo sapiens, UniProt P25090)
# Sequence (P25090 whole entry): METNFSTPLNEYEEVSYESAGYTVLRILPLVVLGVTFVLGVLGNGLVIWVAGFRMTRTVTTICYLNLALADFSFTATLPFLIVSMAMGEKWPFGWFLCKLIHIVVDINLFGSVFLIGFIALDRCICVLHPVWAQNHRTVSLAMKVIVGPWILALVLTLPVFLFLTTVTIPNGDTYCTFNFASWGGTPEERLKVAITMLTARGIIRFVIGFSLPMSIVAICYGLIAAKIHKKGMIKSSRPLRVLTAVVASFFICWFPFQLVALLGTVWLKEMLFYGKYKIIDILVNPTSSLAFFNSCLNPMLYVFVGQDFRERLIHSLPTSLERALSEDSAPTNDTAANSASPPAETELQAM
# Method: Agonist activity at FRP2 (unknown origin) transfected in human HL60 cells assessed as calcium mobilization incubated for 30 mins and measured for 5 sec for 240 sec by fluorometry
# Format: functional, cell-based
# Conditions Used: read-out: EC50
Recorded Metric: EC50 (µM)
// note: answer is a bare numeric in µM

COC(=O)[C@@H](CC(C)C)NC(=O)[C@H](Cc1c[nH]c2ccccc12)NC(=O)c1ccccc1; 10.9

From here, focus on the item given below.
-- ask Give EC50 for the following molecule: COC(=O)[C@@H](Cc1ccccc1)NC(=O)[C@H](Cc1c[nH]c2ccccc12)NC(=O)OC(C)(C)C
-- reply 10.5
